Tested on: Mycobacterium tuberculosis
Experiment: Inhibition of Mycobacterium tuberculosis Lipy assessed as pomegranate oil TAG lipolysis at 4 times molar excess of inhibitor concentration related to 1 mole of enzyme incubated for 30 mins by microtitre plate assay
# inhibition annotations
// return numeric value only (unit: %, not printed)

Record excerpt, results attached:
O=c1oc(OCCOCc2ccccc2)nn1-c1ccc(Oc2ccccc2)cc1    97
CCCCCCCCCCC[C@@H](C[C@@H]1OC(=O)[C@H]1CCCCCC)OC(=O)[C@H](CC(C)C)NC=O    26.8

Asked: Using the record for CC(C)COc1nn(-c2ccccc2)c(=O)o1 , state its measured inhibition.
Given back: 31.6

* * *

# inhibition annotations
System: Mycobacterium tuberculosis
Test: Inhibition of Mycobacterium tuberculosis Lipy assessed as pomegranate oil TAG lipolysis at 4 times molar excess of inhibitor concentration related to 1 mole of enzyme incubated for 30 mins by microtitre plate assay

Record excerpt, results attached:
COc1nn(-c2ccc(Oc3ccccc3)cc2)c(=O)o1    60.8%
CCCCCC(CC)Oc1nn(-c2cccc(Oc3ccccc3)c2)c(=O)o1 (stereo unspecified)    89.6%
CCCCCCOc1nn(-c2ccc(Oc3ccccc3)cc2)c(=O)o1    38.7%
CCCCCCOc1nn(-c2ccccc2)c(=O)o1    35%
CCCCCCOc1nn(-c2cccc(Oc3ccccc3)c2)c(=O)o1    39.9%

Asked: Using the record for O=c1oc(OCCOCc2ccccc2)nn1-c1cccc(Oc2ccccc2)c1 , state its measured inhibition.
Given back: 88%

Asked: Using the record for COCCOc1nn(-c2cccc(Oc3ccccc3)c2)c(=O)o1 , state its measured inhibition.
Given back: 92.4%

* * *

System: Mycobacterium tuberculosis
Assay: Inhibition of Mycobacterium tuberculosis Lipy assessed as pomegranate oil TAG lipolysis at 20 times molar excess of inhibitor concentration related to 1 mole of enzyme incubated for 30 mins by microtitre plate assay
Recorded endpoint: inhibition (%)
// return numeric value only (unit: %, not printed)

CCOc1nn(-c2cccc(Oc3ccccc3)c2)c(=O)o1    53.8
CCCCCCOc1nn(-c2ccc(Oc3ccccc3)cc2)c(=O)o1    77.2
CC(C)COc1nn(-c2ccccc2)c(=O)o1    47.9
COc1nn(-c2cccc(Oc3ccccc3)c2)c(=O)o1    85.9
CCCCCCCCCCC[C@@H](C[C@@H]1OC(=O)[C@H]1CCCCCC)OC(=O)[C@H](CC(C)C)NC=O    87.6
O=c1oc(OCCOCc2ccccc2)nn1-c1ccc(Oc2ccccc2)cc1    98.4
CC(C)COc1nn(-c2ccc(Oc3ccccc3)cc2)c(=O)o1    41.6
CCCCOc1nn(-c2cccc(Oc3ccccc3)c2)c(=O)o1    63.7

Asked: Using the record for CCCCCC(CC)Oc1nn(-c2cccc(Oc3ccccc3)c2)c(=O)o1 (stereo not given) , state its measured inhibition.
Given back: 94.8

Asked: Using the record for CCCCCCCCCCCCOc1nn(-c2cccc(Oc3ccccc3)c2)c(=O)o1 , state its measured inhibition.
Given back: 90.4

Asked: Using the record for CCCCCCOc1nn(-c2ccccc2)c(=O)o1 , state its measured inhibition.
Given back: 38.8

Asked: Using the record for COCCOc1nn(-c2cccc(Oc3ccccc3)c2)c(=O)o1 , state its measured inhibition.
Given back: 93.7

Asked: Using the record for O=c1oc(OCCOCc2ccccc2)nn1-c1ccccc1 , state its measured inhibition.
Given back: 92.2

Asked: Using the record for CCCCCCOc1nn(-c2cccc(Oc3ccccc3)c2)c(=O)o1 , state its measured inhibition.
Given back: 76.5

Asked: Using the record for COc1nn(-c2ccc(Oc3ccccc3)cc2)c(=O)o1 , state its measured inhibition.
Given back: 79.4

Asked: Using the record for CC(C)COc1nn(-c2cccc(Oc3ccccc3)c2)c(=O)o1 , state its measured inhibition.
Given back: 49.4

Asked: Using the record for CCCCCCCCCCOc1nn(-c2cccc(Oc3ccccc3)c2)c(=O)o1 , state its measured inhibition.
Given back: 94.2

Asked: Using the record for O=c1oc(OCCOCc2ccccc2)nn1-c1cccc(Oc2ccccc2)c1 , state its measured inhibition.
Given back: 90.2

Asked: Using the record for COc1nn(-c2ccccc2)c(=O)o1 , state its measured inhibition.
Given back: 81.8

Asked: Using the record for CCCCCCCCOc1nn(-c2cccc(Oc3ccccc3)c2)c(=O)o1 , state its measured inhibition.
Given back: 86.6

* * *

System: Mycobacterium tuberculosis
Test: Inhibition of Mycobacterium tuberculosis Lipy assessed as pomegranate oil TAG lipolysis at 4 times molar excess of inhibitor concentration related to 1 mole of enzyme incubated for 30 mins by microtitre plate assay
Recorded endpoint: inhibition
The number alone won't do; follow it with the unit.

Record excerpt, results attached:
CCCCCCCCCCCCOc1nn(-c2cccc(Oc3ccccc3)c2)c(=O)o1    88.7%
CCCCCCCCOc1nn(-c2cccc(Oc3ccccc3)c2)c(=O)o1    83.2%

# context switch: different compound, same inhibition
Asked: Recall the reported inhibition of CCCCOc1nn(-c2cccc(Oc3ccccc3)c2)c(=O)o1 when tested on Mycobacterium tuberculosis.
Given back: 15.6%

* * *

# I50 annotations
Tested on: Mycobacterium tuberculosis
Assay: Inhibition of Mycobacterium tuberculosis Lipy incubated for 30 mins by UV spectrophotometric analysis

Record excerpt, results attached:
CCCCCCOc1nn(-c2ccccc2)c(=O)o1    > 40 molar excess
CC(C)COc1nn(-c2ccc(Oc3ccccc3)cc2)c(=O)o1    > 40 molar excess

# context switch: different compound, same I50
Asked: Using the record for CCCCOc1nn(-c2cccc(Oc3ccccc3)c2)c(=O)o1 , state its measured I50.
Given back: > 40 molar excess

* * *

System: Mycobacteroides abscessus
Assay: Antibacterial activity against Mycobacterium abscessus CIP 104536T smooth morphotype incubated for 1 to 14 days
Assay type: functional
Conditions: time 1-14 day
Recorded endpoint: MIC50

CCCCCCCCCC[C@@H]1CC[P@@](=O)(OC)OC(C)=C1C(=O)OC    > 100 µM
CCCCCCCCCCCC[C@@H]1CC[P@@](=O)(OC)OC(C)=C1C(=O)OC    > 100 µM

# context switch: different molecule, same MIC50
Asked: Using the record for CCCCCCCCCC[C@H]1CC[P@@](=O)(OC)OC(C)=C1C(=O)OC , state its measured MIC50.
Given back: > 100 µM

* * *

System: Mycobacterium tuberculosis
Experiment: Inhibition of Mycobacterium tuberculosis Lipy assessed as pomegranate oil TAG lipolysis at 4 times molar excess of inhibitor concentration related to 1 mole of enzyme incubated for 30 mins by microtitre plate assay
# inhibition annotations
// return numeric value only (unit: %, not printed)

Record excerpt, results attached:
CC(C)COc1nn(-c2ccc(Oc3ccccc3)cc2)c(=O)o1    33.8
CCCCCCCCCCOc1nn(-c2cccc(Oc3ccccc3)c2)c(=O)o1    91.5
O=c1oc(OCCOCc2ccccc2)nn1-c1ccccc1    89

# context switch: different molecule, same inhibition
Asked: Using the record for CC(C)COc1nn(-c2cccc(Oc3ccccc3)c2)c(=O)o1 , state its measured inhibition.
Given back: 37.4
